# Test system: Vancomycin-Resistant Enterococcus faecalis (V583)
# Format: cell-based
# Condition Set: Vancomycin-Resistant (V583)
Numbered stars: 1 amine (or outer) side, 2 acyl side, 3 side chain; on linkers, the order of the positions; unused ones are H or OH. Square brackets hold non-standard residues; d marks the D form. Peptide text beside a SMILES is read from it. X1 = O=C([C@@H]1C[C@@]2(O)c3ccccc3N[C@H]2N1[*:1])[*:2]; dPiz(5R-OH) = O=C(O)[C@H]1C[C@@H](O)CNN1; NMeV = CN[C@H](C(=O)O)C(C)C
Outcome Measure: MIC (μg/mL) VRE faecalis

Molecule	MIC (μg/mL) VRE faecalis
CC(C)C[C@@H]1NC(=O)[C@H]2C[C@@H](O)CNN2C(=O)[C@H](C(C)C)NC(=O)[C@@H](C(C)C)NC(=O)[C@@H]2C[C@@]3(O)c4ccccc4N[C@H]3N2C(=O)[C@@H]([C@H](C)O)NC1=O [(+)-25, Cyclic Hexapeptide] (cyclo(L[dT][X1][dV]V[dPiz(5R-OH)]))	>64 µg/mL
CC(C)C[C@@H]1NC(=O)[C@H]2C[C@@H](O)CNN2C(=O)[C@H](C(C)C)N(C)C(=O)[C@@H](C(C)C)NC(=O)[C@@H]2C[C@@]3(O)c4cc(-c5ccc6c(c5)[C@]5(O)C[C@H]7C(=O)N[C@H](C(C)C)C(=O)N(C)[C@@H](C(C)C)C(=O)N8NC[C@H](O)C[C@@H]8C(=O)N[C@@H](CC(C)C)C(=O)N[C@H]([C@H](C)O)C(=O)N7[C@@H]5N6)ccc4N[C@H]3N2C(=O)[C@@H]([C@H](C)O)NC1=O [(−)-28, Himastatin N-Methyl Lactam Derivative]	>64 µg/mL
CC(C)C[C@@H]1NC(=O)[C@H]2C[C@@H](O)CNN2C(=O)[C@H](C(C)C)N(C)C(=O)[C@@H](C(C)C)NC(=O)[C@@H]2C[C@@]3(O)c4ccccc4N[C@H]3N2C(=O)[C@@H]([C@H](C)O)NC1=O [(+)-27, N-Methyl Cyclic Hexapeptide] (cyclo(L[dT][X1][dV][NMeV][dPiz(5R-OH)]))	>64 µg/mL

Given CC(C)[C@@H]1OC(=O)[C@@H](C(C)C)NC(=O)[C@@H]2C[C@@]3(O)c4cc(-c5ccc6c(c5)[C@]5(O)C[C@H]7C(=O)N[C@H](C(C)C)C(=O)O[C@@H](C(C)C)C(=O)N8NC[C@H](O)C[C@@H]8C(=O)N[C@@H](CCCCN=[N+]=[N-])C(=O)N[C@H]([C@H](C)O)C(=O)N7[C@@H]5N6)ccc4N[C@H]3N2C(=O)[C@@H]([C@H](C)O)NC(=O)[C@H](CCCCN=[N+]=[N-])NC(=O)[C@H]2C[C@@H](O)CNN2C1=O [(−)-32, Himastatin ε-Azidolysine Derivative] , state its recorded MIC (μg/mL) VRE faecalis.
1 µg/mL
